# merged literature set: IC50 with Human Factor XIIa (Homo sapiens, UniProt P00748)

Completed entries (count: 5):
Nc1nccc2cc(NCc3ccc(OCc4ccncc4)nc3)ccc12    3000 to 10000 nM
Nc1nccc2c(NCc3ccc(OC4CCn5ccnc5C4)nc3)cccc12 (centres unmarked)    300 to 1000 nM
COc1cncc(CNC(=O)c2nn(-c3cccc(Cl)c3)c3c2CCN(c2ccc4c(c2)CN(CCO)CC4)C3=O)c1    10 to 100 nM
C[C@@H](CO)NC(=O)c1nn(-c2cccc(Cl)c2)c2c1CCN(c1ccc3c(c1)C(=O)N(C)CC3)C2=O    300 to 1000 nM
Cn1ccc(OCC23CC(CNc4cccc5c(N)nccc45)(CN2C(=O)OCc2ccccc2)C3)cc1=O    10 to 100 nM

Quick one: IC50 of Cn1ccc(OCC23CN(C(=O)CCc4cccc(OC(F)F)c4)C(CNc4cccc5c(N)nccc45)(C2)C3)cc1=O ?
10 to 100 nM

Also CN1CCC(COc2cc(CN(C)c3cccc4c(N)nccc34)ccn2)CC1 , if possible.
3000 to 10000 nM

Also CN(C)C(=O)c1cc(N2CCc3c(C(=O)NCC4CC4)nn(-c4cccc(Cl)c4)c3C2=O)ccc1F , if possible.
3000 to 10000 nM

###

# merged literature set: IC50 with Human Factor XIIa (Homo sapiens, UniProt P00748)

Completed entries (count: 6):
Cc1cc(CNC(=O)c2nn(-c3cccc(Cl)c3)c3c2CCN(c2cccc(CN4CCCCC4)c2)C3=O)[nH]n1    0.01 to 0.1 µM
Nc1nccc2c(NCC34CC(COc5ccc6nccn6n5)(CO3)C4)cccc12    1 to 3 µM
Cn1ccc(OCC23CN(C(=O)CCc4cccc(C(=O)O)c4)C(CNc4cccc5c(N)nccc45)(C2)C3)cc1=O    0.01 to 0.1 µM
CN1CCCc2ccc(N3CCc4c(C(=O)NCC5CC5)nn(-c5cccc(Cl)c5)c4C3=O)cc2C1=O    0.1 to 0.3 µM
CN1CCc2ccc(N3CCc4c(C(=O)NCC5(N)CC5)nn(-c5cccc(Cl)c5)c4C3=O)cc2C1=O    0.3 to 1 µM
Cc1cc(CNC(=O)c2nn(-c3cccc(Cl)c3)c3c2CCN(c2ccc4c(c2)C(=O)N(C)CCO4)C3=O)nn1C    0.01 to 0.1 µM

Quick one: IC50 of CCNC(=O)c1nn(-c2cccc(C)c2F)c2c1CCN(c1ccc3c(c1)C(=O)N(C)CC3)C2=O ?
0.3 to 1 µM

Also Nc1nccc2c(NCC34CC(COc5ccn6ccnc6c5)(CCO3)C4)cccc12 , if possible.
0.01 to 0.1 µM

Also CN1CCC(COc2cc(CNc3ccc4c(N)ncc(Cl)c4c3)ccn2)CC1 , if possible.
0.01 to 0.1 µM

###

pIC50: −log10 of the molar value.
# merged literature set: pIC50 with Human Factor XIIa (Homo sapiens, UniProt P00748)

CN1CCc2ccc(N3CCc4c(C(=O)N[C@@H]5CCOC5)nn(-c5cccc(Cl)c5F)c4C3=O)cc2C1=O    6.52 to 7.00
CN1CCc2cc(OCC34CCOC(CNc5cccc6c(N)nccc56)(C3)C4)ccc2C1=O    6.00 to 6.52
Nc1nccc2c(NCc3cnc(N4CCn5c(nnc5C(F)(F)F)C4)nc3)cccc12    5.52 to 6.00
Cn1ccc(OCC23CN(C(=O)Cc4ccc5occc5c4)C(CNc4cccc5c(N)nccc45)(C2)C3)cc1=O    7.00 to 8.00
CN1CCc2ccc(N3CCc4c(C(=O)N[C@H](CO)c5ccccc5)nn(-c5cccc(Cl)c5)c4C3=O)cc2C1    6.52 to 7.00

Quick one: pIC50 of CN1CCC(Oc2ccc(CNc3ccc4ccnc(N)c4c3)cc2)CC1 ?
5.00 to 5.52

Also CN1CCc2ccc(N3CCc4c(C(=O)N5CCC5)nn(-c5cccc(Cl)c5)c4C3=O)cc2C1=O , if possible.
5.52 to 6.00
